These data points were gathered from paper PMC3171632.

# key: entry, value: pKi
# Target: LuxS (S-ribosylhomocysteinase) (Bacillus subtilis, UniProt O34667)
# Sequence (O34667 whole entry): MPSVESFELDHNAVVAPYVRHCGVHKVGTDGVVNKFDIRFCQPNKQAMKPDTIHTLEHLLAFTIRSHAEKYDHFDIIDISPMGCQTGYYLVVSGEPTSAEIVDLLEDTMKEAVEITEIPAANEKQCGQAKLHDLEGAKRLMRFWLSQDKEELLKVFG
# Method Summary: LuxS activity assay with SRH and DTNB at […] nm
# Type: biochemical
pKi: −log10 of the molar value.
Measured Parameter: pKi

N[C@@H](CCSC[C@H]1NC(=O)[C@H](O)[C@@H]1O)C(=O)O [compound 21]    4.43
N[C@@H](CCSC[C@H]1NC[C@H](O)[C@@H]1O)C(=O)O [compound 12]    4.32

----------
# Target: LuxS (S-ribosylhomocysteinase) (Bacillus subtilis)
# Method Summary: LuxS activity assay with SRH and DTNB at […] nm, […] min preincubation
# Assay type: biochemical
pKi: −log10 of the molar value.
Measured Parameter: pKi

N[C@@H](CCSC[C@H]1NC(O)[C@H](O)[C@@H]1O)C(=O)O (mixture of isomers) [compound 23]    5.46
